- assay.name: NCI Yeast Anticancer Drug Screen. Data for the bub3 strain (AID 167)
- experimental.conditions: S. cerevisiae bub3 mutant strain, hits give high values; at 50.0 µM unless noted
About 79,000 compounds went through this panel and 15% of them were active in at least one assay; those are over-represented in the sample as a whole.
growth inhibition reference
The response must be a number in % with no trailing unit.

compound	growth inhibition / %
O=C(O)CCC(CC(=O)O)C(=O)O (stereo unspecified)	23.9
CCC(CC)C(=O)NCCNC(=O)C(CC)CC	-10.6
O=C(/C=C/c1ccc(OCc2ccccc2)cc1)c1cccc([N+](=O)[O-])c1	-0.05
C=C(C)C(=O)Oc1ccccc1/C=C/C(=O)CCCCCC	-11
Fc1ccc2c(c1)SC1Oc3ccccc3-c3c1c-2nn3-c1ccccc1 (stereo unspecified)	-11.1
O=C1NC(N2CCOCC2)=N/C1=C\c1cccs1	1.05

Enquiry: Provide one value: measured growth inhibition of `COC(=O)NC(=O)c1cn(CCCOC(=O)CCCCCCCCC(=O)OCCCn2cc(C(=O)NC(=O)OC)c(=O)[nH]c2=O)c(=O)[nH]c1=O`
Return: 13.3

* * *

- assay.name: NCI Yeast Anticancer Drug Screen. Data for the bub3 strain (AID 167)
- experimental.conditions: S. cerevisiae bub3 mutant strain, hits give high values; at 50.0 µM unless noted
This is part of a sample that, as a whole, favours compounds with a hit. Of some 79,000 tested, about 15% had one in any assay. Calls of active or inactive are those of the source. No stated cut-off is given here; in the data, active means growth inhibition above about 70%; inactive means the rest.
property.name: growth inhibition

Some solved cases for reference:
> print(dat)
                                   compound           reported
1   CCc1ccc2nccc(NCCCN(C)C)c2c1[N+](=O)[O-]  -17.7% (inactive)
2                COc1ccc(CNC(=O)CC(C)=O)cc1     13% (inactive)
3            CSc1ccc(NC(=O)c2ccc(Cl)cc2)cc1   5.25% (inactive)
4  COC(=O)Cc1cc(C)n(C)c(=O)c1CN1C(=O)c2ccccc2C1=O  -11.2% (inactive)
5  CC1(C)OC2OC3C(Br)C(=O)OC3C2O1 (stereo not drawn)   24.1% (inactive)

Enquiry: Tell me measured growth inhibition for `C[N+]1(Cc2ccco2)CCCCC1` please.
Return: 9% (inactive)

Enquiry: Determine from records and report growth inhibition for CC(C)N(CCO)CC(O)Cn1cnc2ncnc(N)c21 (stereo not drawn)
Return: -28.4% (inactive)

Enquiry: Identify measured growth inhibition associated with O=C(Cn1c(=O)ccn(C2OC(CO)C(O)C2F)c1=O)c1ccc(F)cc1 (stereo not drawn)
Return: 0.6% (inactive)

Enquiry: Quick one: give measured growth inhibition for `Cc1ccc(Nc2ccc(C)cc2[N+](=O)[O-])cc1`
Return: 31.6% (inactive)

Enquiry: Name the recorded growth inhibition of the compound listed here: `Nc1ncnc2c1c(-c1ccc(Cl)cc1)cn2-c1ccc(I)cc1`
Return: -1.1% (inactive)

Enquiry: Give me measured growth inhibition, please, for this compound: C=CCc1cc(OC)c2c(c1)C(O)CC(c1ccc(OC)c(OC)c1)O2 (stereo not drawn)
Return: 22.6% (inactive)

Enquiry: Indicate the recorded growth inhibition value for this compound: `COc1ccccc1C(=O)N/N=C/c1cccc([N+](=O)[O-])c1`
Return: 29.1% (inactive)

Enquiry: Respond only with growth inhibition recorded for CCN1c2ccccc2CC(CCCN(C)C)(C(N)=O)c2ccccc21 (stereo not drawn)
Return: -1.85% (inactive)

Enquiry: Quick one: give measured growth inhibition for `CCN(CC)CCNc1ccc2ncn3c4cc(=O)ccc4c(O)c1c23`
Return: -7.85% (inactive)

Enquiry: Identify measured growth inhibition associated with `Cc1cc(C)c2nccc(NCCCN(C)C)c2c1[N+](=O)[O-]`
Return: -10.8% (inactive)

Enquiry: Quick one: give measured growth inhibition for `O=C(O)/C=C/c1cc(Br)sc1Br`
Return: -0.95% (inactive)

Enquiry: For `CN(C)CCCNC(=O)CCNC(=O)c1cc(NC(=O)c2cc(NC(=O)c3cc(NC(=O)CCCNC(=O)c4cc(NC(=O)c5cc(NC(=O)c6nccn6C)cn5C)cn4C)cn3C)cn2C)cn1C` , write its growth inhibition.
Return: 4% (inactive)

Enquiry: Please report the measured growth inhibition for C=CCOc1cc2c(cc1C(CC)c1ccc(OCc3ccccc3)cc1)OCO2 (stereo not drawn)
Return: 0.9% (inactive)

Enquiry: Query growth inhibition for `O=[N+]([O-])c1cc(COc2ccc(Cl)c(Cl)c2)ccc1Cl`
Return: 46.4% (inactive)

Enquiry: Recall and state the measured growth inhibition for `C=CCSCc1ccccc1` .
Return: -2.15% (inactive)

Enquiry: Fill in growth inhibition for record `COC(=O)CCC(=O)Nc1cc(C)ccc1C`
Return: -2.25% (inactive)

Enquiry: For `CCOC(=O)c1[nH]cc(C(=O)O)c1C` , write its growth inhibition.
Return: 1.25% (inactive)

Enquiry: Identify the reported growth inhibition for the following entry. CC(=O)OC1CCC2(C)C(CCC3(C)C2C(=O)C=C2C4CC(C)(C(=O)O)CCC4(C)CCC23C)C1(C)C (stereo not drawn)
Return: -5.75% (inactive)

* * *

- assay.name: NCI Yeast Anticancer Drug Screen. Data for the mec2-1 strain (AID 157)
- experimental.conditions: S. cerevisiae mec2-1 strain, hits give high values; at 50.0 µM unless noted
Compounds without any hit were thinned out: in the full panel of roughly 79,000, 15% have a hit.
property.name: growth inhibition (%)
Provide only the numeric value, understood in %.

Solved cases (2 shown):
> print(dat)
                                  compound  reported
1  O=C(Nc1ccc(F)cc1)c1ccc([N+](=O)[O-])cc1        -1
2     Nc1nc2c(ncn2-c2ccc(Br)cc2)c(=O)[nH]1      -1.6

Enquiry: State, in one line, measured growth inhibition of `NC(=S)N/N=C\c1cccc(O)c1O`
Return: 25.1

Enquiry: Please report the measured growth inhibition for CCCCOC(=O)C(C)OC(=O)C(C)Oc1cc(Cl)c(Cl)cc1Cl (stereo unspecified)
Return: -3.95

Enquiry: Tell us which growth inhibition value is on record for `CCCCC(CCCC)C(=O)O`
Return: -9.65

Enquiry: Return value of growth inhibition for input CC(C)CCCC(C)C1CCC2C3CC=C4CC(OC(=O)Nc5ccc(S(=O)(=O)NC6CCCCC6)cc5)CCC4(C)C3CCC12C (stereo unspecified) , no commentary.
Return: -4.35

* * *

- assay.name: NCI Yeast Anticancer Drug Screen. Data for the bub3 strain (AID 167)
- experimental.conditions: S. cerevisiae bub3 mutant strain, hits give high values; at 50.0 µM unless noted
Compounds without any hit were thinned out: in the full panel of roughly 79,000, 15% have a hit.
Listing of recorded growth inhibition by entry.
Form entry: value (%) — number only.

Completed entries (count: 10):
> print(dat)
                                    compound      property.name  output.unit  reported
 1                 CCCCOC(=O)/C=C/C(=O)OCCCC  growth inhibition            %     -0.45
 2                   CCCCCC(=O)CC(=O)C(CC)CC  growth inhibition            %       6.5
 3                        Cn1nnnc1NCc1ccccc1  growth inhibition            %        -2
 4    O=C(O)C1CCc2ccccc21 (stereo not drawn)  growth inhibition            %     -26.6
 5                     COCCOC(=O)c1ccc(C)cc1  growth inhibition            %      12.1
 6                                NCCNCCNCCN  growth inhibition            %     -5.35
 7              NNc1nc(N2CCCCC2)c2[nH]cnc2n1  growth inhibition            %      11.8
 8  CC(=O)OC(CCC1CO1)OC(C)=O (stereo not drawn)  growth inhibition            %      15.2
 9  CCOC(=O)C1CC2OC2CC1C(=O)OCC (stereo not drawn)  growth inhibition            %      -1.9
10   CCOC(=O)c1c(SCc2ccccc2)nc2c3ccccc3ccn12  growth inhibition            %     -20.9

Enquiry: Provide one value: measured growth inhibition of `COC(=O)c1cc(OCC#CC#CCOc2ccc(O)c(C(=O)OC)c2)ccc1O`
Return: -4.15

Enquiry: Return value of growth inhibition for input `COc1ccc(/C=N/NS(=O)(=O)c2ccc(NC(C)=O)cc2)cc1` , no commentary.
Return: -21.8

Enquiry: Item `CN(C)c1ccccc1C(=O)N/N=C\c1ccc(-c2ccccc2)cc1` : provide growth inhibition
Return: 0.35

Enquiry: Please give measured growth inhibition of the following entry: `COc1cc(C(=O)O)cc(I)c1OC`
Return: -4.55

Enquiry: Respond only with growth inhibition recorded for `CSc1nc(N)c2cnn(Cc3ccccc3)c2n1`
Return: 31.4

Enquiry: Give growth inhibition for `C=CCSC(=S)Nc1nc2ccc([N+](=O)[O-])cc2s1`
Return: -10.8
